Kindly supply the reported 5-HT2A % Act @ Max Conc. values for the records listed here.
# System: 5-HT2A receptor (Homo sapiens (Human))
# Protocol: FLIPR Ca2+ flux functional assay at 5-HT2A (HEK293)
# Assay Context: Ca2+ flux, HEK293, at max concentration
Note: a bare number is incomplete; add the unit.

## Input Input COc1cc(Br)c(OC)nc1CC(C)N (stereo not shown) , output reported 5-HT2A % Act @ Max Conc..
## Output 95.6%

## Input Recall and state the measured 5-HT2A % Act @ Max Conc. for COc1cc(C2CC2)c(OC)nc1CC(C)N (stereo not shown) .
## Output 104.13%

## Input Give the reported value of 5-HT2A % Act @ Max Conc. for this record: CCC(N)Cc1cc(OC)c(C)cc1OC (stereo not shown) [Compound 39, reference compound]
## Output 112.8%

## Input Answer with the recorded 5-HT2A % Act @ Max Conc. of CCCCCCc1cc(OC)c(CC(C)N)cc1OC (stereo not shown) [Compound 42, reference compound] only.
## Output 119.7%

## Input Indicate its recorded 5-HT2A % Act @ Max Conc.; the compound in question is CCc1cc(OC)c(CC(N)CC)nc1OC (stereo not shown)
## Output 73.61%

## Input Identify 5-HT2A % Act @ Max Conc. associated with the compound COc1cc(CC(C)N)c(OC)cc1I (stereo not shown) [DOI, reference compound]
## Output 106%

## Input Return value of 5-HT2A % Act @ Max Conc. for input CCCCc1cc(OC)c(CCN)nc1OC , no commentary.
## Output 90.63%

## Input Input COc1cc(C)c(OC)nc1CCN , output reported 5-HT2A % Act @ Max Conc..
## Output 85.81%

## Input Provide measured 5-HT2A % Act @ Max Conc. value, entry: CCSc1cc(OC)c(CCN)nc1OC
## Output 94.73%

## Input Query 5-HT2A % Act @ Max Conc. for COc1cc(CCNCc2ccccc2OC)c(OC)cc1C [Compound 25D-NBOMe, 25D-NBOMe, reference compound]
## Output 97.5%

## Input Return value of 5-HT2A % Act @ Max Conc. for input CCSc1cc(OC)c(CC(N)CC)nc1OC (stereo not shown) , no commentary.
## Output 77.03%

## Input Supply measured 5-HT2A % Act @ Max Conc. of COc1cc(CCCCF)c(OC)nc1CCN in your reply.
## Output 81.86%

## Input Please look at this compound and report its 5-HT2A % Act @ Max Conc.: CCC(N)Cc1nc(OC)c(Br)cc1OC (stereo not shown)
## Output 70.17%

## Input Give 5-HT2A % Act @ Max Conc. for the following compound: CCC(N)Cc1nc(OC)c(Cl)cc1OC (stereo not shown)
## Output 70.92%

## Input Using the record for CCCc1cc(OC)c(CC(N)CC)cc1OC (stereo not shown) [Compound 40, reference compound] , state its measured 5-HT2A % Act @ Max Conc..
## Output 84.23%

## Input Return the recorded 5-HT2A % Act @ Max Conc. value; entry: COc1cc(Cl)c(OC)nc1CC(C)N (stereo not shown)
## Output 99.4%

## Input Quote 5-HT2A % Act @ Max Conc. reported for CCCCCc1nc(OC)c(CC(N)CC)nc1OC (stereo not shown) please.
## Output 37.1%

## Input Using the record for COc1cc(CCCCCF)c(OC)nc1CCN , state its measured 5-HT2A % Act @ Max Conc..
## Output 64.66%

## Input Tell me measured 5-HT2A % Act @ Max Conc. for COc1cc(Br)c(OC)nc1CCN please.
## Output 96.84%

## Input Give 5-HT2A % Act @ Max Conc. for the following compound: CCCc1cc(OC)c(CC(N)CC)nc1OC (stereo not shown)
## Output 49.58%

## Input Query 5-HT2A % Act @ Max Conc. for COc1cc(CCCCCC(F)(F)F)c(OC)nc1CCN
## Output 73.21%

## Input Give me measured 5-HT2A % Act @ Max Conc., please, for this compound: COc1cc(CCCC(F)(F)F)c(OC)nc1CCN
## Output 68.5%
